Kindly state protease stability score for each of the entries shown.
- testProtocol: protease stability score; higher = more stable; yeast display proteolysis, trypsin and chymotrypsin;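 further: relative to predicted unfolded state with 0 unfolded-like and 1 meaning tenfold more protease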

For record TEEEKEVEDLLRVVIHALQTGDEKKISELVDPNMRVKIGDKINHGWENAFEFHVRFIKELGVDHINIHPRHVRLIGDKVEVHLNLIIHVNGRDHETEIRLTAIKVNGRWHIESFEEQ the listed protease stability score is 1.91

For record SEEEELAREAMRILIEAIVTGDEDEIRRLLDPHVRIEVHIGDKSIKNHGRESMVRILRWLGVDHIDIKRFRLEIQGEFLHLDLDTEFHFNGVTVRTRINNRSLKINGRWQTKEVKYFIE the listed protease stability score is 1.27

For record DDSAKWTEIALKIKSHDSDTGNEEKIRRLLDPNVRIEINGQEIHGRDKISKWLSEIRIQIEHVDTERYELQGNKAIVDGRMHIKVSYGDKEMHFDIKFEIEVHKVDGQWLIHSERII the listed protease stability score is 0.754

For record DDLHEDTKRYLKEWIDLMYTGDEEKIFENMDPNTRIIDENHELHGREEVKDWARRMARELRHREFELTHLEVQGNFIHVRGLLIGDQGDKVIIRDVEIISIKINGRWRIESVRFE the listed protease stability score is 2.34

For record SDVEEMLHRIARLIVHNLFTGDWEDLVRMMDPHARYIVNGKESVGWRRVTEMLRRHHEELRIREIRIRHIEVYNGKAELHLEVNEEVNGREVSLDTRLHVLTINGVIRSIHIEVE the listed protease stability score is 0.719

For record SDLEKETEELTRLFLENLVTGDEKTARELIDPHAMTDIGDFHIHGRDRTFRHIEELWRHWGVDRIRIHHDHIDIQGNKSYIEGTIHINGQSRKVHLIIIVFNGRIDKVRMHIR the listed protease stability score is 1.36

For record SDEEKHAEEYHRQLTRDIMTGDEHILHELVDPHVLERVDGKDNHGWEEIAHFWVRFKNMRMHIEIHEIRHIGDFVDSDIKIRVVYNGKDITMRVHFHVEKINGRWLTTHIRIK the listed protease stability score is 0.352

For record HEEEHEMRKLAHILFEVLLTGNWKLLAELADPDVLTHINGRDMHGMESELETWKHLRIRDMKIRHVDVQGDKVHLDTELEGEINGRRFQTRTHIHYLLVDGRTKHVKVQID the listed protease stability score is 1.51

For record SENEKRMRELAEIILISWWTGDEDTLKDLADPRTRVNIDGVDLIGMELTSEFLERHLREMRIHSIELESITVIDGQAHIHLEVDTVVNGVRIRTKIHILVVTVDGRLKSEHYHRR the listed protease stability score is 0.446

For record SDLDHQARRALEETFKAFETGDEHTWNRLVDPHVRLNVNGQEFHGMELIREWFKQDRDELRLKTIELKRVSVQGDYVHIDSTYYYEYNGQHRILEVHIHAVKFDGRWVVKRIHIH the listed protease stability score is 0.662

For record DEEERDISRWLDHLIESLETGDEDSLQHLLDPHVRVVVNGKDHHGWKALTKMLRQLRVNRIRIRDFEIIGDKIEVDIRMHVRVGDKHYVFNVDLVARKIDGRWIMHNITIH the listed protease stability score is 2.19

For record DEEEKKWKDMVHLWFHWHVTGDFEALYENFDPNARLEQTIDGKRIEVHGREVVKEFFHRLMEELGVDHIRIERRQIQGEKVHIRGTSIFNGKERDVHIDLVVIDGRFRSARIIFN the listed protease stability score is 1.39

For record DEEEEHSKKMTDWWLHAVLTGDEEKLRQMIDPDVKLHINGKDHVGREEAVKSLRELLHRLGVNHIHVERMDVVGDKVILNFHLRVGDKEHETRVILHIYNGRIKEIRIHIH the listed protease stability score is 2.16

For record SELDDHMRRIMDHYIEDLVTGNEDRQQKLADPNVRVIIWQGDKIYHLHGREEWVKALRELRWHEIHVRHREPVNGKTHVDTEVDGEINGRRHRHRVHLTLLVVDGKVKLVEFDHH the listed protease stability score is 1.37

For record SEEEETIRRVAEVLVHSILTGDEHFEENYLDPNARIDVNGKHFIGRERYLEAIRDLNEHLGWELKDVKLREVNVQGDKMHLKMEIKRHVNGKDLFIDMHVNVWKVNGKWLIRSLRYS the listed protease stability score is 1.44

For record DEEERDAKEARDLLERSMDTGNEDLWKELLDPNMIIHIGDKEIHGMKEWIEFHKERGAETRVEFKDMRMQGNKLILRLNLKVHFDGQTYEHEVTYIVSKVDGVWLVKYIHIH the listed protease stability score is 0.981

For record TDEKRDLDDWLHLLLHAIRTGDFRIEEKLADPNARLEFNGKEFIGMHHILNFLIEWRLHHMDIKHIEKQGDYLHIDSRLDVDFDGQRTILETHLVSLKINGRWILHSMSIG the listed protease stability score is 1.28

For record SEDEEQARHFVEMLEHVERTGDWRELEKLVDPHVIMDIDGVRHHGRHEVVDLSKKLGVDHVSLEHLEVQGDKAIIHFNMHVNGVEMHHHVDTRKVNGRWLNERIILK the listed protease stability score is 0.488

For record DEDDELKKTAVHDFTRDIATGDEESLHKLVDPHVRTTFDGQDLIGREHMWEHIHRLLRRYKNIRSEHIHIREIHVVDGVVESHTHIHMRIGEFKFIFNVHVFILKVDGVWFVHEAHYV the listed protease stability score is 0.886

For record SEEERHWKEFIRMMFEALKTGDETELEKNIDPNVRVHINGQELHGRETASRFMQKHEEDMGFKHFHIDHIHFQGDKIHVHGILWVNGRDIEIHIHLVIVNGRVSLVSRDIREH the listed protease stability score is 0.247

For record SKDEDDMRRWAEILIQDFITGDEDRMNHLLDPNTRVQVNGVQDHGMEALEKLFEILGFKHIDIKDLHIKLIGDKVEQDVVLRLNVNGKERKVKVHNFAEKVDGRWFVESITVHVR the listed protease stability score is 1.02

For record REEEEQLKHFIEHRLHNFLTGNEERLHHLADPNMRIDINGKELHGREAYIYEFNRLGWEIKHIDIEHLEVQGDKVDVDLRFKGHIDGKTRHIKSKLIVLKVDGKWFDKDYFII the listed protease stability score is 1.13
